assay: molar heat capacity at constant pressure; conditions: 235.15 K; 101.33 kPa; Crystal; Small sample (50 mg) DSC
property: molar heat capacity at constant pressure (J/K/mol)

# compound, molar heat capacity at constant pressure [J/K/mol]
measured = [
    ("OC[C@@H](O)C(O)[C@H](O)CO [D-arabitol]", 158.49),
    ("O[C@H]1[C@H](O)[C@@H](O)[C@H](O)[C@@H](O)[C@H]1O [cis-1,2,3,5-trans-4,6-cyclohexanehexol]", 169.98),
    ("OC[C@@H](O)[C@H](O)[C@@H](O)CO [xylitol]", 164.81),
    ("OC[C@@H](O)[C@@H](O)[C@H](O)[C@H](O)CO [D-mannitol]", 183.75),
    ("OC[C@H](O)C(O)[C@@H](O)CO [L-(-)-arabitol]", 162.87),
    ("OC[C@@H](O)[C@@H](O)CO [meso-1,2,3,4-butanetetrol]", 131.47),
]
